value_type: melting point (°C)
Answer in °C, number only, no unit symbol.

# annotated cases, reported melting point shown
> print(dat)
                              sample.smiles  result.unit  readout.value
1  CNC(=O)NS(=O)(=O)c1sc(CC(C)C)cc1-c1ccc(CN(C(=O)c2ccco2)[C@H](C(=O)O)C(C)C)cc1           °C            134
2  CCNC(=O)NS(=O)(=O)c1sc(CC(C)C)cc1-c1ccc(CN(C(=O)c2ccccc2)[C@H](C(=O)OC)C(C)C)cc1           °C             65
3  CCNC(=O)NS(=O)(=O)c1sc(CC(C)C)cc1-c1ccc(CN(C(C)=O)[C@H](C(=O)OCC)C(C)C)cc1           °C             81
4  CCNC(=O)NS(=O)(=O)c1sc(CC(C)C)cc1-c1ccc(CN(C(C)=O)[C@H](C(=O)O)C(C)C)cc1           °C            136
5  CCCCOC(=O)NS(=O)(=O)c1sc(CC(C)C)cc1-c1ccc(CN(C(=O)CCC(=O)O)[C@H](C(=O)O)C(C)C)cc1           °C             66

// next entry
*Q* Tell me its melting point given CNC(=O)NS(=O)(=O)c1sc(CC(C)C)cc1-c1ccc(CN(C(=O)CCC(=O)OC)[C@H](C(=O)OC)C(C)C)cc1 as the entry.
*A* 158

---

value_type: melting point (°C)
Answer in °C, number only, no unit symbol.

# annotated cases, reported melting point shown
> print(dat)
                              sample.smiles     value.type  result.unit  readout.value
1  CCCCOC(=O)NS(=O)(=O)c1sc(CC(C)C)cc1-c1ccc(CN(C(=O)c2ccco2)[C@H](C(=O)O)C(C)C)cc1  melting point           °C             93
2  CCNC(=O)NS(=O)(=O)c1sc(CC(C)C)cc1-c1ccc(CN(C(=O)c2ccccc2)[C@H](C(=O)O)C(C)C)cc1  melting point           °C            149
3  CCNC(=O)NS(=O)(=O)c1sc(CC(C)C)cc1-c1ccc(CN(C(C)=O)[C@H](C(=O)OC)C(C)C)cc1  melting point           °C            130

// next entry
*Q* Tell me its melting point given CNC(=O)NS(=O)(=O)c1sc(CC(C)C)cc1-c1ccc(CN(C(=O)c2ccco2)[C@H](C(=O)OC)C(C)C)cc1 as the entry.
*A* 84
